src = patent US20260035364A1

Tested System: DGKalpha (Homo sapiens)
Sequence (P23743 whole entry): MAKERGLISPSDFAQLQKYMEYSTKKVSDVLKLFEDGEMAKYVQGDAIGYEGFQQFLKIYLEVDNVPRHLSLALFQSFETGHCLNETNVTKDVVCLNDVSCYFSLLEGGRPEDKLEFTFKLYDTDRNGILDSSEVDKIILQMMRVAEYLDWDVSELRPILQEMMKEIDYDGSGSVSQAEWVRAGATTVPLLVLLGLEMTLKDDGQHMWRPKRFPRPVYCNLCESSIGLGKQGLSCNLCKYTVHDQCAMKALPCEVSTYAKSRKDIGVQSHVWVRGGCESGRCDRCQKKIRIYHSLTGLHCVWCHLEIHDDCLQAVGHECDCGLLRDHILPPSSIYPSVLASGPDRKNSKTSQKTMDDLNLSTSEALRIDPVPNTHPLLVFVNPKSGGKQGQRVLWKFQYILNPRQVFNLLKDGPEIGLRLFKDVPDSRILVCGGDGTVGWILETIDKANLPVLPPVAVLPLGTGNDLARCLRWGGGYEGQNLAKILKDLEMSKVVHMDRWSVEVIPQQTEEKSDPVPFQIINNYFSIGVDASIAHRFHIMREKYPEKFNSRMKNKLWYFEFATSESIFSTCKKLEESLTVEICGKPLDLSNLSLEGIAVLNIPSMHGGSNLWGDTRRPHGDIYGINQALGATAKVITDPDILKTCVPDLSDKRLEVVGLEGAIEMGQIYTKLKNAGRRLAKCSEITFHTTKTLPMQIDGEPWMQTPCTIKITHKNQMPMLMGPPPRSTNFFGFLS
Experimental Protocol: In vitro DGK inhibition assay (ADP-Glo, liposomes), DGKalpha
Assay type: biochemical
Parameters: hDGKalpha(1-735)-N-His; His (N); made in house; host or cells: Sf21 insect cells (baculovirus)
Measurement Context: 4 nM DGK α, 25 μM ATP, 125 uM DLG in liposomes, 1 hour reaction
Quick reference: log10 of IC50 of the listed items.
Measurement Label: log10 of IC50 (log10 of the value in nM)

CC(C)(c1nnc(-c2ccc3c(c2)N(Cc2ccc(Oc4cccc(Cl)c4)cc2)C(=O)[C@@H](N)CS3(=O)=O)o1)S(C)(=O)=O: 4.31
COc1ccc(-c2ccc(CN3C(=O)[C@@H](N)CS(=O)(=O)c4ccc(-c5nnc(C(C)(C)S(C)(=O)=O)o5)cc43)cc2)c(C)c1: 4.05
CC(C)(c1nc(-c2cc3c(cc2F)S(=O)(=O)C[C@H](N)C(=O)N3Cc2ccc(OC(F)(F)F)cc2)no1)S(C)(=O)=O: 2.83
CS(=O)(=O)Cn1nnc(-c2cc3c(cc2F)S(=O)(=O)C[C@H](N)C(=O)N3Cc2ccc(Oc3ccccc3)cc2)n1: 3.07
COc1cccc(Oc2ccc(CN3C(=O)[C@@H](N)CS(=O)(=O)c4ccc(-c5nnc(C(C)(C)S(C)(=O)=O)o5)cc43)cc2)c1: 3.06
COc1ccc(-c2ccc(CN3C(=O)[C@@H](N)CS(=O)(=O)c4cc(F)c(-c5nnc(C(C)(C)S(C)(=O)=O)o5)cc43)cc2)cc1: 2.73
CC(C)(c1nnc(-c2ccc3c(c2)N(Cc2ccc(-c4ccc(C#N)cc4)cc2)C(=O)[C@@H](N)CS3(=O)=O)o1)S(C)(=O)=O: 3.14
CC(C)(c1nnc(-c2ccc3c(c2)N(Cc2ccc(-c4ccc(C(F)(F)F)cc4)cc2)C(=O)[C@@H](N)CS3(=O)=O)o1)S(C)(=O)=O: 4.00
CC(C)(c1nnc(-c2ccc3c(c2)N(Cc2ccc(Oc4ccccc4)cc2)C(=O)[C@@H](N)CS3(=O)=O)o1)S(=O)(=O)C1CC1: 3.68
CC(C)(c1nnc(-c2cc3c(cc2F)S(=O)(=O)C[C@H](N)C(=O)N3Cc2ccc(Cl)cc2)o1)S(C)(=O)=O: 3.04
